Tested on: U2OS
EXPERIMENT_NOTES: Multiplex assay against U2OS
Assay type: toxicity, cell-based
TEST_CONDITIONS: human, 24 h, 10 µM, compound concentration 10 uM, replicate 1
Recorded Population Pyknosed Nuclei (%) by entry

// worked examples, Population Pyknosed Nuclei (%) included
* OCCCNc1cc(-c2ccnc(Nc3cccc(Cl)c3)n2)ccn1 | 12%
* Cc1cc(=O)n(C)c2cc(N3C(=O)CC[C@H](NS(=O)(=O)CC(C)C)[C@H]3c3ccc(Cl)cc3)ccc12 | 23%
* COCCCN1CCC(NC(=O)c2cc(Cl)c(N)c3c2OCC3)CC1 [PRUCALOPRIDE] | 12%
* COc1cc(C(=O)N2CC[C@@H](O)[C@@H](N)C2)cc2nc(-c3cc4ccccc4n3CC3CC3)n(C)c12.Cl | 38%
* C[C@@H]1CC(=O)Nc2cccc(-c3ccc4c(c3)c(-c3cnn(C)c3)nn4C)c2N1 | 11%
* CCc1nn2c(C)cc(C)nc2c1Cc1ccc(-c2nnc(C3CCNCC3)o2)cc1 | 19%
* CN1CCN(c2ccc(Nc3c4ccccc4nc4ccccc34)cc2)CC1.Cl.Cl.O | 11%
* COc1ccc2[nH]c(I)c(CCNC(C)=O)c2c1 | 8%
* COc1cc2nc(N3CCN(C(=O)c4ccco4)CC3)nc(N)c2cc1OC.Cl [PRAZOSIN HYDROCHLORIDE] | 7%
* O=C(Nc1cc(-c2ccccc2)nn1-c1ccccc1F)c1ccc([N+](=O)[O-])cc1 | 9%

Prompt line: Which Population Pyknosed Nuclei (%) value is on record for `Nc1nc(-c2ccco2)c2cnn(Cc3ccccc3F)c2n1` ?
Response line: 7%

Prompt line: Param item: `CC(C)(C)c1ccc(CSc2cnn(C(C)(C)C)c(=O)c2Cl)cc1`
Response line: 15%

Prompt line: # iterate: `Cc1c(Cc2ccc3ccccc3n2)c2cc(F)ccc2n1CC(=O)O`
Response line: 6%

Prompt line: Please do the same for `N[C@](CC1c2ccccc2Oc2ccccc21)(C(=O)O)[C@H]1C[C@@H]1C(=O)O` as well.
Response line: 7%

Prompt line: Item: `Cn1cc(C(=O)OCC2CCN(CCNS(C)(=O)=O)CC2)c2ccccc21`
Response line: 4%

Prompt line: Another compound to look at: `COc1ccc2c(c1OCc1ccccc1)C[C@@H](C(=O)O)N(C(=O)C(c1ccccc1)c1ccccc1)C2`
Response line: 5%

Prompt line: Can you handle `Cc1cc(NC(=O)NCCN2CCC(O)(Cc3ccccc3)CC2)c2ccccc2n1` next?
Response line: 8%

Prompt line: # repeat for `COc1cc2nc(N3CCN(C(=O)COc4c(OC)cccc4C(C)C)CC3)nc(N)c2cc1OC.Cl.Cl`
Response line: 33%

###

System: Fibroblast
EXPERIMENT_NOTES: Multiplex assay against human fibroblast
Format: toxicity, cell-based
TEST_CONDITIONS: 12 h, 10 µM, compound concentration 10 uM, replicate 1
MEASURE: Population Mitotic Cells (%)
# value in %; strip the unit string

Consider the following illustrative entries.
* CC(C)C[C@H](CO)Nc1nc(S[C@@H](C)c2ccccc2)nc2nc(N)sc12 [AZD-8797] | 61
* COc1cc(C(=O)N2CC[C@@H](O)[C@@H](N)C2)cc2nc(-c3cc4ccccc4n3CC3CC3)n(C)c12.Cl | 40
* CCn1c(-c2nc3cc(C(=O)N4CCCC(N)C4)ccc3n2C)cc2ccccc21.Cl (configuration not stated) | 58

Prompt line: Please provide the recorded Population Mitotic Cells (%) for `COc1cc2nc(N3CCN(C(=O)COc4c(OC)cccc4C(C)C)CC3)nc(N)c2cc1OC.Cl.Cl` , tested on Fibroblast.
Response line: 66

Prompt line: What do you get for `CN(C)C(=O)Cn1cc(-c2ccc(-c3nnc4ccccn34)cc2)cn1` ?
Response line: 47

Prompt line: Now try CSc1nc(NC2CCCC2)c([N+](=O)[O-])c(NC2CCCC2)n1 [GS-39783] .
Response line: 45

Prompt line: Now the molecule `Cc1sc2c(c1C)C(c1ccc(Cl)cc1)=N[C@H](CC(=O)OC(C)(C)C)c1nnc(C)n1-2`
Response line: 56

Prompt line: COCCCN1CCC(NC(=O)c2cc(Cl)c(N)c3c2OCC3)CC1 [PRUCALOPRIDE] ?
Response line: 70

Prompt line: # iterate: CCC(=O)OCC(=O)[C@@]1(OC(=O)CC)[C@@H](C)C[C@H]2[C@@H]3CCC4=CC(=O)C=C[C@]4(C)[C@@]3(Cl)[C@@H](O)C[C@@]21C [BECLOMETHASONE DIPROPIONATE]
Response line: 60
